ED50 listing for selected molecules.
test system: mice; test: Phenylbenzoquinone test (analgesic activity); assay type: in vivo; conditions: Mus musculus, ip, read-out: Phenylbenzoquinone test - ED 50
Give the number; mg/kg is assumed, so skip it.

- Molecule: "S=C1OC2(CCCC2)c2ccccc21"
  ED50 / mg/kg: 46
- Molecule: "CN1CCCC12OCc1ccccc12 (stereo not shown)"
  ED50 / mg/kg: 100
- Molecule: "CN1CCCC12OC(c1ccccc1)c1ccccc12 (stereo not shown)"
  ED50 / mg/kg: 64
- Molecule: "CN1CCCC12OCc1cc(Cl)ccc12 (stereo not shown)"
  ED50 / mg/kg: 30
- Molecule: "CN1CCCCC12SC(=O)c1ccccc12 (stereo not shown)"
  ED50 / mg/kg: 50

Tell me measured ED50 for CCCN1CCCC12SC(=O)c1ccccc12 (stereo not shown) please.
35

Report ED50 for CN1CCCC12SC(=O)c1ccccc12 (stereo not shown)
30

* * *

test: Acute toxicity (mice - LD 50); conditions: mouse, in vivo, ip, at 400 mg/kg, read-out: Acute toxicity, % at 400 (mg/kg/i.p.), printed in the LD 50 column
compounds and their reported mortality
Just the number please, in %, no unit attached.

- Compound: "CCCN1CCCC12SC(=O)c1cc(Cl)ccc12 (centres unmarked)"
  Observed value: 40

// next item, mortality requested
Answer with the recorded mortality of CCCCN1CCCC12SC(=O)c1cc(Cl)ccc12 (centres unmarked) only.
60
